Hey, just so you know, these numbers are from ChEMBL document CHEMBL4387751.

Below is a list of entries, each paired with its recorded selectivity ratio value.
System: DHFR (human versus Pneumocystis jirovecii)
PROTOCOL NOTES: Selectivity ratio of IC50 for inhibition of recombinant human DHFR using 9 uM DHFA as substrate to IC50 for inhibition of Pneumocystis jirovecii DHFR using 9 uM DHFA as substrate
Assay type: toxicity
STATED CONDITIONS: recombinant human DHFR and Pneumocystis jirovecii DHFR, probe DHFA (substrate), read-out: Ratio IC50
REPORTED METRIC: selectivity ratio

Cc1ccc(Nc2ccc3nc(N)nc(N)c3n2)cc1 | 15
Nc1nc(N)c2nc(Nc3ccc(F)c(F)c3)ccc2n1 | 28
Nc1nc(N)c2nc(Nc3cc(F)c(F)c(F)c3)ccc2n1 | 12
Nc1nc(N)c2nc(Nc3cccc4ccccc34)ccc2n1 | 10
Nc1nc(N)c2nc(Nc3ccc(O)cc3)ccc2n1 | 10
Nc1nc(N)c2nc(Nc3ccc4ccccc4c3)ccc2n1 | 12
Nc1nc(N)c2nc(Nc3ccccc3)ccc2n1 | 13

----------
Below is a list of entries, each paired with its recorded IC50 value.
PROTOCOL NOTES: Inhibition of Pneumocystis jirovecii DHFR expressed in Escherichia coli Rosetta-gami B (DE3) assessed as reduction in consumption of NADPH using 9 uM DHFA as substrate
REPORTED METRIC: IC50 (nM)

CCN(c1ccccc1)c1ccc2nc(N)nc(N)c2n1 | 150
CCCCN(c1ccccc1)c1ccc2nc(N)nc(N)c2n1 | 66
Nc1nc(N)c2nc(Nc3ccc(F)c(F)c3)ccc2n1 | 80

----------
Below is a list of entries, each paired with its recorded IC50 value.
ASSAY TARGET: Dihydrofolate reductase (Homo sapiens, UniProt P00374)
Sequence (P00374 whole entry): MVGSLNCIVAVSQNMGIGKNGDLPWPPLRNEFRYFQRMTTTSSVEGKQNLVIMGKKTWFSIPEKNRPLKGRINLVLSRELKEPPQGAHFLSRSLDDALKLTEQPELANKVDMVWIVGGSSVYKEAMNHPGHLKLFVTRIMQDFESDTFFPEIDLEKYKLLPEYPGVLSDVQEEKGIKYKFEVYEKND
PROTOCOL NOTES: Inhibition of recombinant human DHFR assessed as reduction in consumption of NADPH using 9 uM DHFA as substrate
REPORTED METRIC: IC50 (nM)

Cc1ccc(Nc2ccc3nc(N)nc(N)c3n2)cc1 | 2630
Nc1nc(N)c2nc(Nc3ccc(O)cc3)ccc2n1 | 1580
Nc1nc(N)c2nc(Nc3ccccc3)ccc2n1 | 1530
Nc1nc(N)c2nc(Nc3ccc(F)c(F)c3)ccc2n1 | 2250
COc1ccc(Nc2ccc3nc(N)nc(N)c3n2)cc1 | 2460
Nc1nc(N)c2nc(Nc3ccc4ccccc4c3)ccc2n1 | 3180
Nc1nc(N)c2nc(Nc3cccc4ccccc34)ccc2n1 | 1100

----------
PROTOCOL NOTES: Inhibition of Pneumocystis carinii DHFR expressed in Escherichia coli Rosetta-gami B (DE3) assessed as reduction in consumption of NADPH using DHFA as substrate
pIC50: −log10 of the molar value.
REPORTED METRIC: pIC50

COc1ccc(OC)c(NCc2ccc3nc(N)nc(N)c3n2)c1 | 5.85

----------
Below is a list of entries, each paired with its recorded IC50 value.
PROTOCOL NOTES: Inhibition of Pneumocystis jirovecii DHFR expressed in Escherichia coli Rosetta-gami B (DE3) assessed as reduction in consumption of NADPH using 9 uM DHFA as substrate
REPORTED METRIC: IC50 (µM)

Nc1nc(N)c2nc(Nc3ccc4ccccc4c3)ccc2n1 | 0.275
COc1ccc(Nc2ccc3nc(N)nc(N)c3n2)cc1 | 0.239
Nc1nc(N)c2nc(Nc3ccc(O)cc3)ccc2n1 | 0.15
Nc1nc(N)c2nc(Nc3cc(F)c(F)c(F)c3)ccc2n1 | 0.155
Nc1nc(N)c2nc(Nc3ccccc3)ccc2n1 | 0.122
Cc1ccc(Nc2ccc3nc(N)nc(N)c3n2)cc1 | 0.174
Nc1nc(N)c2nc(Nc3cccc4ccccc34)ccc2n1 | 0.112
